biological target: Serine acetyltransferase isoform 1 (EhSAT1) (Entamoeba histolytica, UniProt Q9U8X2, H208S); assay: SAT activity assay at […] nm, […] serine
measurementKind: IC50
Param answer (str): number followed by unit.

Task: Please state recorded IC50 (tested on Serine acetyltransferase isoform 1 (EhSAT1) (Entamoeba histolytica, UniProt Q9U8X2, H208S)) of N[C@@H](CS)C(=O)O [L-cysteine]
Output: 170 µM
